Molecular target: CRTh2 (Homo sapiens)
Sequence (Q9Y5Y4 whole entry): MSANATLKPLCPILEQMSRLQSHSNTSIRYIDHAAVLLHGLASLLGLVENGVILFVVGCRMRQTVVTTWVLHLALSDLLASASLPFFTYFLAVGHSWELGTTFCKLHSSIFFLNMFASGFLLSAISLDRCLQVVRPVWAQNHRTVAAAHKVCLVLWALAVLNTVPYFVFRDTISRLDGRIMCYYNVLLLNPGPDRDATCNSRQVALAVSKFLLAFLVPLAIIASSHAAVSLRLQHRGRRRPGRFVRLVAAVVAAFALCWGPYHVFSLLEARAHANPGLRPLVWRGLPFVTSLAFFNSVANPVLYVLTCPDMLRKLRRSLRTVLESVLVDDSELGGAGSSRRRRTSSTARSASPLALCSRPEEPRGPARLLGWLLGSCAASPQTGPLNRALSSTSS
Provide the recorded IC50 for the entries that follow.
Give bare numbers, in µM.

| TEST_SMILES | IC50, µM |
| --- | --- |
| CN(c1ncc(-c2cc(Cl)ccc2OCC(=O)O)cn1)S(C)(=O)=O | 0.01 |

Please look at the following molecule next.
QUERY: Supply IC50 value. Item: CS(=O)(=O)c1ccc(-c2cc(Cl)ccc2OCC(=O)O)cc1
RESULT: 0.0398
